The origin of these recorded values is ChEMBL document CHEMBL3232844.

Parameter TGI: see the listing below.
Tested on: CCRF-CEM
Experiment: Cytotoxicity against human CCRF-CEM cells
Format: functional
Measurement setup: read-out: pTGI (converted)

Smiles text	Sign qualifier	TGI [µM]
COc1cc(/C=C/c2cc(O)c3cc(CC=C(C)C)[nH]c3c2)cc2c1O[C@]1(C)CC[C@@H](O)C(C)(C)[C@H]1C2	>	100
COc1cc(/C=C/c2cc(O)c3c(C/C=C(\C)CCC=C(C)C)c[nH]c3c2)cc2c1O[C@]1(C)CC[C@@H](O)C(C)(C)[C@H]1C2	>	100
COc1cc(/C=C/c2cc(OC)c3c(CC=C(C)C)c[nH]c3c2)cc2c1O[C@]1(C)CC[C@@H](O)C(C)(C)[C@H]1C2	=	0.851
COc1cc(/C=C/c2cc(O)c3c(c2)C[C@@H]2C(C)(C)[C@H](O)CC[C@@]2(C)O3)cc2c1ccn2C	=	12.3
COc1cc(/C=C/c2cc(O)c3cc[nH]c3c2)cc2c1O[C@]1(C)CC[C@@H](O)C(C)(C)[C@H]1C2	=	36.3
CC1(C)[C@H](O)CC[C@@]2(C)Oc3c(O)cc(/C=C/c4cc(O)c5cc[nH]c5c4)cc3C[C@H]12	=	14.1
COc1cc(/C=C/c2cc(OC)c3ccn(C)c3c2)cc2c1O[C@]1(C)CC[C@@H](O)C(C)(C)[C@H]1C2	=	9.33

###

Tested on: CCRF-CEM
Experiment: Cytotoxicity against human CCRF-CEM cells
Assay type: functional
Field: label. Allowed values: met (GI50 < 0.4 µM) or not met (GI50 >= 0.4 µM).

Smiles text	Assigned class
COc1cc(/C=C/c2cc(OC)c3ccn(C)c3c2)cc2c1O[C@]1(C)CC[C@@H](O)C(C)(C)[C@H]1C2	not met
COc1cc(/C=C/c2cc(O)c3cc(CC=C(C)C)[nH]c3c2)cc2c1O[C@]1(C)CC[C@@H](O)C(C)(C)[C@H]1C2	not met
COc1cc(/C=C/c2cc(OC)c3cc[nH]c3c2)cc2c1O[C@]1(C)CC[C@@H](O)C(C)(C)[C@H]1C2	met
COc1cc(/C=C/c2cc(O)c3ccn(C)c3c2)cc2c1O[C@]1(C)CC[C@@H](O)C(C)(C)[C@H]1C2	met
CC1(C)[C@H](O)CC[C@@]2(C)Oc3c(O)cc(/C=C/c4cc(O)c5cc[nH]c5c4)cc3C[C@H]12	met

###

Tested on: SF-268
Experiment: Cytotoxicity against human SF268 cells
Type: functional
Measurement setup: read-out: pTGI (converted)
Give label 1 when the value for TGI is at least 30 µM. Give label 0 when it is less.

Smiles text	Assigned class
COc1cc(/C=C/c2cc(OC)c3c(C/C=C(\C)CCC=C(C)C)c[nH]c3c2)cc2c1O[C@]1(C)CC[C@@H](O)C(C)(C)[C@H]1C2	label 0
COc1cc(/C=C/c2cc(O)c3cc[nH]c3c2)cc2c1O[C@]1(C)CC[C@@H](O)C(C)(C)[C@H]1C2	label 1
CC1(C)[C@H](O)CC[C@@]2(C)Oc3c(O)cc(/C=C/c4cc(O)c5cc[nH]c5c4)cc3C[C@H]12	label 0
COc1cc(/C=C/c2cc(OC)c3c(CC=C(C)C)c[nH]c3c2)cc2c1O[C@]1(C)CC[C@@H](O)C(C)(C)[C@H]1C2	label 0
COc1cc(/C=C/c2cc(O)c3c(CC=C(C)C)c[nH]c3c2)cc2c1O[C@]1(C)CC[C@@H](O)C(C)(C)[C@H]1C2	label 1
COc1cc(/C=C/c2cc(O)c3cc(CC=C(C)C)[nH]c3c2)cc2c1O[C@]1(C)CC[C@@H](O)C(C)(C)[C@H]1C2	label 1
COc1cc(/C=C/c2cc(O)c3c(c2)C[C@@H]2C(C)(C)[C@H](O)CC[C@@]2(C)O3)cc2[nH]cc(CC=C(C)C)c12	label 1
COc1cc(/C=C/c2cc(OC)c3cc[nH]c3c2)cc2c1O[C@]1(C)CC[C@@H](O)C(C)(C)[C@H]1C2	label 0
COc1cc(/C=C/c2cc(O)c3ccn(C)c3c2)cc2c1O[C@]1(C)CC[C@@H](O)C(C)(C)[C@H]1C2	label 1
COc1cc(/C=C/c2cc(OC)c3ccn(C)c3c2)cc2c1O[C@]1(C)CC[C@@H](O)C(C)(C)[C@H]1C2	label 1
COc1cc(/C=C/c2cc(O)c3c(c2)C[C@@H]2C(C)(C)[C@H](O)CC[C@@]2(C)O3)cc2c1ccn2C	label 0
COc1cc(/C=C/c2cc(O)c3c(C/C=C(\C)CCC=C(C)C)c[nH]c3c2)cc2c1O[C@]1(C)CC[C@@H](O)C(C)(C)[C@H]1C2	label 1
